Listed here are molecules together with their documented excess over highest single agent.
system: NCI-H446; test: excess over highest single agent (ExcessHSA) synergy score, 6x6 matrix; higher = less synergy (more negative = stronger synergy); details: 72 h; CellTiter-Glo viability
In all, about 1,900 compounds were measured (“excess over highest single agent (ExcessHSA) synergy score, 6x6 matrix”: median about -83, lowest 2% from about -370 on). The sample holds the lowest values, similar compounds and a random draw of the others, so the mix is not that of the screen.
result_type: excess over highest single agent

molecule	target	result_type	recorded_measurement
Cn1c(=O)c(F)c(Nc2ccc(I)cc2F)c2c(=O)n(C[C@@H](O)CO)cnc21 + Cc1sc2c(c1C)C(c1ccc(Cl)cc1)=N[C@@H](CC(=O)OC(C)(C)C)c1nnc(C)n1-2	NCI-H446	excess over highest single agent	-396
CN(C)c1ccc(C(=O)NCCCCCCC(=O)NO)cc1 + Cc1sc2c(c1C)C(c1ccc(Cl)cc1)=N[C@@H](CC(=O)OC(C)(C)C)c1nnc(C)n1-2	NCI-H446	excess over highest single agent	-250
COc1nccc(-c2c(-c3ccc(F)cc3)ncn2C2CCNCC2)n1 + Cc1sc2c(c1C)C(c1ccc(Cl)cc1)=N[C@@H](CC(=O)OC(C)(C)C)c1nnc(C)n1-2	NCI-H446	excess over highest single agent	-55.9

====

tested on: NCI-H446; experiment: excess over highest single agent (ExcessHSA) synergy score, 6x6 matrix; higher = less synergy (more negative = stronger synergy); conditions: 72 h; CellTiter-Glo viability
Whole data set: some 1,900 compounds, median “excess over highest single agent (ExcessHSA) synergy score, 6x6 matrix” near -83, cut for the lowest 2% near -370. The full list was thinned out, with the lowest values kept by preference.

molecule	target	excess over highest single agent
CC[C@@]1(O)C(=O)OCc2c1cc1n(c2=O)Cc2cc3cc(O)ccc3nc2-1 + Cc1sc2c(c1C)C(c1ccc(Cl)cc1)=N[C@@H](CC(=O)OC(C)(C)C)c1nnc(C)n1-2	NCI-H446	-416
CC(C)[C@H](C(=O)Nc1ccc(C(=O)NO)cc1)c1ccccc1 + Cc1sc2c(c1C)C(c1ccc(Cl)cc1)=N[C@@H](CC(=O)OC(C)(C)C)c1nnc(C)n1-2	NCI-H446	-112
C/C=C1\NC(=O)[C@H]2CSSCC/C=C/[C@H](CC(=O)N[C@H](C(C)C)C(=O)N2)OC(=O)[C@H](C(C)C)NC1=O + Cc1sc2c(c1C)C(c1ccc(Cl)cc1)=N[C@@H](CC(=O)OC(C)(C)C)c1nnc(C)n1-2	NCI-H446	-38.7
CS[C@H]1SC[C@H]2C(=O)N(C)[C@@H](C(C)C)C(=O)OC[C@@H](NC(=O)c3cnc4ccccc4n3)C(=O)N[C@@H](C)C(=O)N(C)[C@@H]1C(=O)N(C)[C@@H](C(C)C)C(=O)OC[C@@H](NC(=O)c1cnc3ccccc3n1)C(=O)N[C@@H](C)C(=O)N2C + Cc1sc2c(c1C)C(c1ccc(Cl)cc1)=N[C@@H](CC(=O)OC(C)(C)C)c1nnc(C)n1-2	NCI-H446	15.3
CC[C@@]1(O)C(=O)OCc2c1cc1n(c2=O)Cc2cc3c(CN(C)C)c(O)ccc3nc2-1 + Cc1sc2c(c1C)C(c1ccc(Cl)cc1)=N[C@@H](CC(=O)OC(C)(C)C)c1nnc(C)n1-2	NCI-H446	-475
CCN1CCN(C(=O)Cc2ccc(Nc3ncc(F)c(Nc4ccc(C(=O)Nc5ccccc5Cl)cc4)n3)cc2)CC1 + Cc1sc2c(c1C)C(c1ccc(Cl)cc1)=N[C@@H](CC(=O)OC(C)(C)C)c1nnc(C)n1-2	NCI-H446	-388
CC(=O)N(C)C1(c2ccccc2)CCN(CCC[C@]2(c3ccc(Cl)c(Cl)c3)CCCN(C(=O)c3ccccc3)C2)CC1 + Cc1sc2c(c1C)C(c1ccc(Cl)cc1)=N[C@@H](CC(=O)OC(C)(C)C)c1nnc(C)n1-2	NCI-H446	-142
Cc1cccc(Nc2nc(N[C@@H]3CCCC[C@@H]3N)ncc2C(N)=O)c1 + Cc1sc2c(c1C)C(c1ccc(Cl)cc1)=N[C@@H](CC(=O)OC(C)(C)C)c1nnc(C)n1-2	NCI-H446	-24
COCC1OC(=O)c2coc3c2C1(C)C1=C(C3=O)C2CCC(O)C2(C)CC1OC(C)=O (configuration not stated) + Cc1sc2c(c1C)C(c1ccc(Cl)cc1)=N[C@@H](CC(=O)OC(C)(C)C)c1nnc(C)n1-2	NCI-H446	-423
CO[C@H]1C[C@@H]2CC[C@@H](C)[C@@](O)(O2)C(=O)C(=O)N2CCCC[C@H]2C(=O)O[C@H]([C@H](C)C[C@@H]2CC[C@@H](O)[C@H](OC)C2)CC(=O)[C@H](C)/C=C(\C)[C@@H](O)[C@@H](OC)C(=O)[C@H](C)C[C@H](C)/C=C/C=C/C=C/1C + Cc1sc2c(c1C)C(c1ccc(Cl)cc1)=N[C@@H](CC(=O)OC(C)(C)C)c1nnc(C)n1-2	NCI-H446	-737
CC(C)(O)c1cc2nc(-c3cnc(N)nc3)nc(N3CCOCC3)c2s1 + Cc1sc2c(c1C)C(c1ccc(Cl)cc1)=N[C@@H](CC(=O)OC(C)(C)C)c1nnc(C)n1-2	NCI-H446	-253
CCc1c2c(nc3ccc(O)cc13)-c1cc3c(c(=O)n1C2)COC(=O)[C@]3(O)CC + Cc1sc2c(c1C)C(c1ccc(Cl)cc1)=N[C@@H](CC(=O)OC(C)(C)C)c1nnc(C)n1-2	NCI-H446	-327
CC(=O)N1CCN(c2ccc(OCc3nn(C)c(C)c3-c3cccc4c(CCCOc5cccc6ccccc56)c(C(=O)O)n(Cc5cccnc5)c34)cc2)CC1 + Cc1sc2c(c1C)C(c1ccc(Cl)cc1)=N[C@@H](CC(=O)OC(C)(C)C)c1nnc(C)n1-2	NCI-H446	97.8
CC[C@@]1(O)C(=O)OCc2c1cc1n(c2=O)Cc2cc3ccccc3nc2-1 + Cc1sc2c(c1C)C(c1ccc(Cl)cc1)=N[C@@H](CC(=O)OC(C)(C)C)c1nnc(C)n1-2	NCI-H446	-249
Cc1c(CN2CCN(S(C)(=O)=O)CC2)sc2c(N3CCOCC3)nc(-c3cnc(N)nc3)nc12 + Cc1sc2c(c1C)C(c1ccc(Cl)cc1)=N[C@@H](CC(=O)OC(C)(C)C)c1nnc(C)n1-2	NCI-H446	-334
NC1(Cc2ccc(Cl)cc2)CCN(c2ncnc3[nH]ccc23)CC1 + Cc1sc2c(c1C)C(c1ccc(Cl)cc1)=N[C@@H](CC(=O)OC(C)(C)C)c1nnc(C)n1-2	NCI-H446	-66
CCc1c2c(nc3ccc(OC(=O)N4CCC(N5CCCCC5)CC4)cc13)-c1cc3c(c(=O)n1C2)COC(=O)[C@]3(O)CC + Cc1sc2c(c1C)C(c1ccc(Cl)cc1)=N[C@@H](CC(=O)OC(C)(C)C)c1nnc(C)n1-2	NCI-H446	-249

====

Listed here are compounds together with their documented excess over highest single agent.
test system: NCI-H446; assay: excess over highest single agent (ExcessHSA) synergy score, 6x6 matrix; higher = less synergy (more negative = stronger synergy); details: 72 h; CellTiter-Glo viability
Whole data set: some 1,900 compounds, median “excess over highest single agent (ExcessHSA) synergy score, 6x6 matrix” near -83, cut for the lowest 2% near -370. For the sample, the lowest values were picked, then their nearest neighbours and some compounds at random.
result_type: excess over highest single agent

compound	result_type	recorded_measurement
CN1CCN(c2ncc(-c3cc(Cl)cc(Cl)c3Cl)c(N)n2)CC1 + Cc1sc2c(c1C)C(c1ccc(Cl)cc1)=N[C@@H](CC(=O)OC(C)(C)C)c1nnc(C)n1-2	excess over highest single agent	-219
O=c1cc(N2CCOCC2)oc2c(-c3ccccc3)cccc12 + Cc1sc2c(c1C)C(c1ccc(Cl)cc1)=N[C@@H](CC(=O)OC(C)(C)C)c1nnc(C)n1-2	excess over highest single agent	83.7
O=C(O)c1nc(=O)[nH]c(=O)[nH]1 + Cc1sc2c(c1C)C(c1ccc(Cl)cc1)=N[C@@H](CC(=O)OC(C)(C)C)c1nnc(C)n1-2	excess over highest single agent	-48.1

====

test system: NCI-H446; experiment: excess over highest single agent (ExcessHSA) synergy score, 6x6 matrix; higher = less synergy (more negative = stronger synergy); conditions: 72 h; CellTiter-Glo viability
In all, about 1,900 compounds were measured (“excess over highest single agent (ExcessHSA) synergy score, 6x6 matrix”: median about -83, lowest 2% from about -370 on). This excerpt belongs to a sample that is enriched for the lowest values.
Listed here are compounds together with their documented excess over highest single agent.

compound	excess over highest single agent
COc1ccc2cc(-c3nc(-c4ccc([S+](C)[O-])cc4)[nH]c3-c3ccncc3)ccc2c1 (configuration not stated) + Cc1sc2c(c1C)C(c1ccc(Cl)cc1)=N[C@@H](CC(=O)OC(C)(C)C)c1nnc(C)n1-2	-100
NS(=O)(=O)OC[C@@H]1C[C@@H](n2ccc3c(N[C@H]4CCc5ccccc54)ncnc32)C[C@@H]1O + Cc1sc2c(c1C)C(c1ccc(Cl)cc1)=N[C@@H](CC(=O)OC(C)(C)C)c1nnc(C)n1-2	-544
